Cited source: patent US11814367B2

# assaySystem: hGYS1 enzyme (recombinant hGYS1/GN1 protein) (Homo sapiens (Human))
# assayInfo: GYS1 coupled enzyme assay (PK/LDH)
# runConditions: hGYS1/GN1 50 nM, UDP-Glucose 0.8 mM, G6P 1 mM; geometric mean of at least 2 runs
propertyLabel: pIC50
Entry type: numeric. Quantity: pIC50, the -log10 of concentration in molar units.

[ask] Dear colleague, I am looking for the recorded pIC50 of the following molecule: "CC(C)c1ccc([C@@H](NC(=O)[C@@H]2C[C@@H](F)CN2C(=O)c2cnco2)c2ccccc2)cc1"
[reply] 6.38

---

# assaySystem: hGYS1 enzyme (recombinant hGYS1/GN1 protein) (Homo sapiens (Human), UniProt P13807)
# Sequence (P13807 whole entry): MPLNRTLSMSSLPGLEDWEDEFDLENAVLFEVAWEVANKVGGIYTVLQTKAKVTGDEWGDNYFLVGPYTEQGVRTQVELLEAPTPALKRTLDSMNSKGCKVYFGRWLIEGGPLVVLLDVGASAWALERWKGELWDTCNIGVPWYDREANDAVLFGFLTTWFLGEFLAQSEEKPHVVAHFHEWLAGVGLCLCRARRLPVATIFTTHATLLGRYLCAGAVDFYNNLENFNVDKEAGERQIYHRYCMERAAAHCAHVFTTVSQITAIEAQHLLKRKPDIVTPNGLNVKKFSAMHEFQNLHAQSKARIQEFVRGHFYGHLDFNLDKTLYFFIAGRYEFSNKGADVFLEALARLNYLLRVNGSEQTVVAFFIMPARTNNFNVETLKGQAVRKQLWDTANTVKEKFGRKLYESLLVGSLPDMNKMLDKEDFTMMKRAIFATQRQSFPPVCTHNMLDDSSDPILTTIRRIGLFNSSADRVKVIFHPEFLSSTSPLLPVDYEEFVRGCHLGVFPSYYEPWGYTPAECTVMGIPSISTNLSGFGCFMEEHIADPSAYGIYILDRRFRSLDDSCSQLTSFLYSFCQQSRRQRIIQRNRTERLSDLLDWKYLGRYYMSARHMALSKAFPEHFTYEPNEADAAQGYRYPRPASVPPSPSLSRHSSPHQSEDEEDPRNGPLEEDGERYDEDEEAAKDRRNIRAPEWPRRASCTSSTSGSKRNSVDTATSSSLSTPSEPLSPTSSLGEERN
# Sequence (P46976 whole entry partner): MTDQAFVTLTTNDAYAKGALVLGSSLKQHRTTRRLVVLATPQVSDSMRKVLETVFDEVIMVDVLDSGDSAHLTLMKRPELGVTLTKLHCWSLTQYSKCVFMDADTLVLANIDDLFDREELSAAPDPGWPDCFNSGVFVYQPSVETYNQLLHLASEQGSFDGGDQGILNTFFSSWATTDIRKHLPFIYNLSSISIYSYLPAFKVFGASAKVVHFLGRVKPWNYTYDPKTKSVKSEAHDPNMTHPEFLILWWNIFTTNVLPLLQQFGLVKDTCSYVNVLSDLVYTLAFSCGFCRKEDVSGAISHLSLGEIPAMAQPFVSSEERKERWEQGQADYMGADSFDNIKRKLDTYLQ
# assayInfo: GYS1 coupled enzyme assay (PK/LDH)
# runConditions: hGYS1/GN1 50 nM, UDP-Glucose 0.8 mM, G6P 1 mM; geometric mean of at least 2 runs
propertyLabel: IC50 (nM)
Response body: numeric value in nM, unit text excluded.

Solved cases (10 shown):
{"compound": "O=C(N[C@@H](c1ccccc1)c1ccc(C2CC(F)(F)C2)cn1)[C@@H]1C[C@@H](F)CN1C(=O)Cc1nc(C(F)(F)F)co1", "IC50 / nM": 49}
{"compound": "O=C(N[C@@H](c1ccccc1)c1ccc(C2CC2)c(F)n1)[C@@H]1C[C@@H](F)CN1C(=O)Cn1cc(C(F)(F)F)cn1", "IC50 / nM": 36}
{"compound": "CC(C)c1ccc([C@@H](NC(=O)[C@@H]2C[C@@H](F)CN2C(=O)C(=O)C2CC2)c2ccccc2)cc1", "IC50 / nM": 1040}
{"compound": "Cc1cc(CC(=O)N2C[C@H](F)C[C@H]2C(=O)N[C@@H](c2ccccc2)c2ccc(C(C)C)cc2)on1", "IC50 / nM": 26}
{"compound": "O=C(N[C@H](c1ccccc1)c1ccc(C2CC(F)(F)C2)c(F)c1)[C@@H]1C[C@@H](F)CN1C(=O)CNC(=O)N1CCC1", "IC50 / nM": 1680}
{"compound": "Cc1nc2ccccc2n1CC(=O)N1C[C@H](F)C[C@H]1C(=O)N[C@@H](c1ccccc1)c1ccc(C2(C)CC2)c(F)c1", "IC50 / nM": 46}
{"compound": "Cc1nccc(NCC(=O)N2C[C@H](F)C[C@H]2C(=O)N[C@@H](c2ccccc2)c2ccc(C3CC3)c(F)n2)n1", "IC50 / nM": 11}
{"compound": "CC(=O)N1CC(F)(C(=O)N2C[C@H](F)C[C@H]2C(=O)N[C@@H](c2ccccc2)c2ccc(C(C)C)cc2)C1", "IC50 / nM": 323}
{"compound": "Cn1cc(CC(=O)N2C[C@H](F)C[C@H]2C(=O)N[C@@H](c2ccccc2)c2ccc(C3CC3)c(F)n2)c(C(F)F)n1", "IC50 / nM": 6}
{"compound": "CC(=O)N1CCOCC1C(=O)N1C[C@H](F)C[C@H]1C(=O)N[C@@H](c1ccccc1)c1ccc(C(C)C)cc1 (some centres unmarked)", "IC50 / nM": 332}

[ask] Query for hGYS1 enzyme (recombinant hGYS1/GN1 protein) (Homo sapiens (Human), UniProt P13807): what IC50 does the record show for "O=C(N[C@@H](c1ccccc1)c1ccc(C2CC2)c(F)n1)[C@@H]1C[C@@H](F)CN1C(=O)Cn1cnnc1C(F)F" ?
[reply] 18

[ask] Input "O=C(N[C@@H](c1ccccc1)c1ccc(C2CC2)c(F)c1)[C@@H]1C[C@@H](F)CN1C(=O)Cn1c(=O)[nH]c2ccccc21"
[reply] 55

[ask] Input "CC(C)c1ccc([C@@H](NC(=O)[C@@H]2C[C@@H](F)CN2C(=O)Cc2cc(F)ccc2Cl)c2ccccc2)cc1"
[reply] 15

[ask] Input "CCn1ccnc(CC(=O)N2C[C@H](F)C[C@H]2C(=O)N[C@@H](c2ccccc2)c2ccc(C(C)C)c(F)n2)c1=O"
[reply] 6

[ask] Input "CC(=O)N1CCN(CC(=O)N2C[C@H](F)C[C@H]2C(=O)N[C@@H](c2ccccc2)c2ccc(C(C)C)cc2)CC1"
[reply] 342
